IC50 listing for selected compounds.
target: human ENT1 (Homo sapiens); construct: JAR cells expressing ENT1 were purchased from ATCC; host or cells: JAR cells; assay: ENT1 binding assay (competition with Sahenta-DY647 on JAR cells); settings: competition with SAHENTA-DY647 binding; IC50 categorized; read-out: Binding Assay IC50

Worked examples, 5 compounds total:
sample smiles | observed
C[C@H]1O[C@@H](n2cnc3c(N(C)Cc4ccc([N+](=O)[O-])cc4)ncnc32)[C@H](O)[C@@H]1O | 0.02 to 0.5 µM
Cc1noc(CSc2ncnc3c2ncn3[C@@H]2O[C@H](C)[C@@H](O)[C@H]2O)n1 | > 0.5 µM
C[C@H]1O[C@@H](n2c(NCC3CCOCC3)nc3c(OCc4ccc(OC(F)F)cc4)ncnc32)[C@H](O)[C@@H]1O | 0.001 to 0.02 µM
Cc1cc(COc2ncnc3c2ncn3[C@@H]2O[C@H](C)[C@@H](O)[C@H]2O)ccc1[N+](=O)[O-] | 0.02 to 0.5 µM
C[C@H]1O[C@@H](n2cnc3c(OCCc4cnc(CF)nc4)ncnc32)[C@H](O)[C@@H]1O | > 0.5 µM

Here's the next entry for you.
Please fill in: IC50 reported for "C[C@H]1O[C@@H](n2c(NC3CCCC3)nc3c(OCc4ccc(OC(F)(F)F)cc4)ncnc32)[C@H](O)[C@@H]1O" = 0.001 to 0.02 µM

----------
molecular target: human ENT1 (Homo sapiens); construct: JAR cells expressing ENT1 were purchased from ATCC; host or cells: JAR cells; test: ENT1 binding assay (competition with Sahenta-DY647 on JAR cells); settings: competition with SAHENTA-DY647 binding; IC50 categorized; read-out: Binding Assay IC50
experimental readout: IC50

Worked examples, 2 compounds total:
compound | IC50
C[C@H]1O[C@@H](n2cnc3c(NCc4ccc5c(c4)CCC5)ncnc32)[C@H](O)[C@@H]1O [Compound 322] | > 500 nM
O=[N+]([O-])c1ccc(CSc2ncnc3c2ncn3[C@@H]2O[C@H](CF)[C@@H](O)[C@H]2O)cc1 [Compound 159] | 1 to 20 nM

Please fill in: IC50 reported for C[C@H]1O[C@@H](n2cnc3c(COCc4ccccc4)ncnc32)[C@H](O)[C@@H]1O [Compound 399] = > 500 nM

Please fill in: IC50 reported for C[C@H]1O[C@@H](n2cnc3c(OCCc4cnc(OCF)nc4)ncnc32)[C@H](O)[C@@H]1O [Compound 356] = > 500 nM

Please fill in: IC50 reported for C[C@H]1C[C@@H](n2cnc3c(SCc4ccc([N+](=O)[O-])cc4)ncnc32)[C@H](O)[C@@H]1O [Compound 214] = 20 to 500 nM

Please fill in: IC50 reported for C[C@H]1O[C@@H](n2c(NCC3CCC(F)(F)CC3)nc3c(OCc4ccc(OC(F)F)nc4)ncnc32)[C@H](O)[C@@H]1O [Compound 116] = 1 to 20 nM

Please fill in: IC50 reported for OCCOC[C@H]1O[C@@H](n2cnc3c(OCc4ccc(OC(F)F)cc4)nc(Cl)nc32)[C@H](O)[C@@H]1O [Compound 162] = 1 to 20 nM

----------
Molecular target: human ENT1 (Homo sapiens, UniProt Q99808)
Construct: JAR cells expressing ENT1 were purchased from ATCC; host or cells: JAR cells
Sequence (Q99808 1-456): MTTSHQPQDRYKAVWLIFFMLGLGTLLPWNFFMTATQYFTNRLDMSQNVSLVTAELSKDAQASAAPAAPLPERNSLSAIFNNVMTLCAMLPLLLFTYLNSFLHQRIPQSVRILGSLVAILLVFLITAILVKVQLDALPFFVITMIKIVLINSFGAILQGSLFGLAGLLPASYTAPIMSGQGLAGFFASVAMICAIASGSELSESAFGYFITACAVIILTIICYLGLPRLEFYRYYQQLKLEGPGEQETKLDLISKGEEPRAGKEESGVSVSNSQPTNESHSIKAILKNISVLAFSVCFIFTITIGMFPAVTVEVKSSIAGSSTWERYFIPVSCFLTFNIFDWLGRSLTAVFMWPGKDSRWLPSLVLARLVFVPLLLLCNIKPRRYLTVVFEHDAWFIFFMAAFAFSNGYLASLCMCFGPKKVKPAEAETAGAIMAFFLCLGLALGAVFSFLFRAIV
Test: ENT1 binding assay (competition with Sahenta-DY647 on JAR cells)
Details: competition with SAHENTA-DY647 binding; IC50 categorized; read-out: Binding Assay IC50
experimental readout: IC50

Worked examples, 3 compounds total:
compound | observed
C[C@H]1O[C@@H](n2cnc3c(COc4ccc(Cl)cc4)ncnc32)[C@H](O)[C@@H]1O [Compound 285] | > 500 nM
CNc1nc2c(OCc3ccccc3)ncnc2n1[C@@H]1O[C@H](C)[C@@H](O)[C@H]1O [Compound 264] | > 500 nM
C[C@H]1O[C@@H](n2cnc3c(NCc4ccc(-n5ccnn5)cc4)ncnc32)[C@H](O)[C@@H]1O [Compound 326] | > 500 nM

C[C@H]1O[C@@H](n2c(Nc3cnn(C)c3)nc3c(OCc4ccc(C#N)cc4)ncnc32)[C@H](O)[C@@H]1O [Compound 63] tested on human ENT1 (Homo sapiens, UniProt Q99808) gave IC50: 20 to 500 nM

C[C@H]1O[C@@H](n2cnc3c(COCc4ccc(Cl)cc4)ncnc32)[C@H](O)[C@@H]1O [Compound 290] tested on human ENT1 (Homo sapiens, UniProt Q99808) gave IC50: > 500 nM

C[C@H]1O[C@@H](n2c(NC3CCCC3)nc3c(OCc4ccc(C(F)(F)F)cc4)ncnc32)[C@H](O)[C@@H]1O [Compound 92] tested on human ENT1 (Homo sapiens, UniProt Q99808) gave IC50: 1 to 20 nM

NC(=O)[C@H]1O[C@@H](n2cnc3c(SCc4ccc([N+](=O)[O-])cc4)ncnc32)[C@H](O)[C@@H]1O [Compound 243] tested on human ENT1 (Homo sapiens, UniProt Q99808) gave IC50: > 500 nM

C[C@H]1O[C@@H](n2cnc3c(SCc4cccc(OC5CC5)c4)ncnc32)[C@H](O)[C@@H]1O [Compound 306] tested on human ENT1 (Homo sapiens, UniProt Q99808) gave IC50: > 500 nM

CCNc1nc2c(N3CCc4ccc(C#N)cc4C3)ncnc2n1[C@@H]1O[C@H](C)[C@@H](O)[C@H]1O [Compound 198] tested on human ENT1 (Homo sapiens, UniProt Q99808) gave IC50: 20 to 500 nM

C[C@H]1O[C@@H](n2c(N[C@H]3CC[C@@](C)(O)CC3)nc3c(OCc4ccc(C#N)cc4)ncnc32)[C@H](O)[C@@H]1O [Compound 131] tested on human ENT1 (Homo sapiens, UniProt Q99808) gave IC50: 1 to 20 nM

C[C@H]1O[C@@H](n2cnc3c(OCc4ccc(Cl)c(C(F)(F)F)c4)ncnc32)[C@H](O)[C@@H]1O [Compound 250] tested on human ENT1 (Homo sapiens, UniProt Q99808) gave IC50: > 500 nM

C[C@H]1O[C@@H](n2c(NC3CCC(O)C3)nc3c(OCc4ccc(C(F)(F)F)cc4)ncnc32)[C@H](O)[C@@H]1O (stereo partly shown) [Compound 100] tested on human ENT1 (Homo sapiens, UniProt Q99808) gave IC50: 1 to 20 nM

Cc1ccc(COc2ncnc3c2ncn3[C@@H]2O[C@H](C)[C@@H](O)[C@H]2O)cc1 [Compound 211] tested on human ENT1 (Homo sapiens, UniProt Q99808) gave IC50: 20 to 500 nM

C[C@H]1O[C@@H](n2c(NC3CCCC3)nc3c(OCc4ccc(OC(F)(F)F)nc4)ncnc32)[C@H](O)[C@@H]1O [Compound 87] tested on human ENT1 (Homo sapiens, UniProt Q99808) gave IC50: 1 to 20 nM
